I'd be grateful if you could share measured IC50 for these entries.
Test system: A2780
Experiment: Cytotoxicity (growth inhibition), 96 hour exposure, ovarian cell line panel
Conditions: read-out: Cytotoxicity IC50, A2780
Give just the numeric value; µM need not be written.

Under A2780: IC50 value of Oc1ccc(-c2nc3cc(-c4ccc5[nH]c(-c6ccc(O)cc6)nc5c4)ccc3[nH]2)cc1 [Compound 9] ?
4.3

Under A2780: IC50 value of CN(C)CCCOc1ccc(-c2nc3cc(-c4ccc5[nH]c(-c6ccc(OCCCN(C)C)cc6)nc5c4)ccc3[nH]2)cc1 [Compound 13] ?
0.235

Under A2780: IC50 value of CN1CCN(c2ccc3[nH]c(-c4ccc5[nH]c(-c6ccc(O)cc6)nc5c4)nc3c2)CC1 [Hoechst 33258, reference compound] ?
12
